Hello, the source for this data is the Human Domainome abundance scans (Beltran et al. 2025), in case you need it.

B1: Tudor domain-containing protein 3, residues 554 to 611; numbered along this chain, Q9H7E2 (parent)
chain: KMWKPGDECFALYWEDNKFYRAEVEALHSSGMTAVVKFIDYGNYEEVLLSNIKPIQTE

Variants of: B1
PROTOCOL DESCRIPTION: abundance fitness (aPCA) (normalised: wild type 0, dead -1); higher = more abundant; growth selection in yeast, the domain comes from the species named
TEST CONDITIONS: Homo sapiens
Kindly return Criterion met if reported abundance fitness is no lower than -0.1; return Criterion not met if it is lower.

> print(dat)
    mutation.code        group.label
 1           A26Q  Criterion not met
 2           I52R  Criterion not met
 3           E15S  Criterion not met
 4           G42R  Criterion not met
 5           E45A      Criterion met
 6           N17R      Criterion met
 7           E15K      Criterion met
 8           A34I  Criterion not met
 9            M2A  Criterion not met
10           Y41A      Criterion met
11           G42S  Criterion not met
12           E25R      Criterion met
13           E15I  Criterion not met
14           E15Y      Criterion met
15           W14R      Criterion met
16           H28F  Criterion not met
17           L48N  Criterion not met
18           S30L  Criterion not met
19           G31F  Criterion not met
20           E46P  Criterion not met
21           K18L  Criterion not met
22           F38M  Criterion not met
23            M2G      Criterion met
24           S50M  Criterion not met
25           E45Q  Criterion not met
26           L48E  Criterion not met
27           T57H      Criterion met
28           Y41K      Criterion met
29            K1Y  Criterion not met
30           N51L  Criterion not met
31           T57N      Criterion met
32           E15W  Criterion not met
33           Q56R      Criterion met
34           I55C      Criterion met
35           E15D  Criterion not met
36           W14N      Criterion met
37           V36Q  Criterion not met
38           I39K      Criterion met
39           S29K      Criterion met
40            G6S  Criterion not met
41           E23N      Criterion met
42           K37C  Criterion not met
43           Y20N  Criterion not met
44           E23W  Criterion not met
45           E15F  Criterion not met
46           K53H  Criterion not met
47           Q56I      Criterion met
48           H28S      Criterion met
49           H28P      Criterion met
50           T33S      Criterion met
51            K1W  Criterion not met
52           D16T  Criterion not met
53           H28G      Criterion met
54           S30W  Criterion not met
55            G6A  Criterion not met
56           K37F  Criterion not met
57           A22N  Criterion not met
58           T33M  Criterion not met
59           E25S      Criterion met
60            C9S  Criterion not met
61           G31N      Criterion met
62            W3A  Criterion not met
63           E58T      Criterion met
64            P5T      Criterion met
65           M32A      Criterion met
66           M32P  Criterion not met
67           F19P  Criterion not met
68           V47Q  Criterion not met
69           I39T      Criterion met
70           T57Q      Criterion met
71           Y13A      Criterion met
72           V47G  Criterion not met
73           G31R      Criterion met
74           S50R  Criterion not met
75           A34V      Criterion met
76           K18P  Criterion not met
77           A34G  Criterion not met
78           S50A      Criterion met
79           L48V  Criterion not met
80           V24S  Criterion not met
81           G31T      Criterion met
82           E46R  Criterion not met
83            G6Y  Criterion not met
84           I39Y      Criterion met
85           T33C  Criterion not met
86           E25I      Criterion met
87            W3K  Criterion not met
88           E15N  Criterion not met
89           S29W  Criterion not met
90           E25Y      Criterion met
